Target: hSERT (Homo sapiens, UniProt P31645)
Construct: cells were stimulated with staurosporine (40 nM) to increase the expression of the 5-HT transporter; host or cells: JAR (human placental choriocarcinoma)
Sequence (P31645 whole entry): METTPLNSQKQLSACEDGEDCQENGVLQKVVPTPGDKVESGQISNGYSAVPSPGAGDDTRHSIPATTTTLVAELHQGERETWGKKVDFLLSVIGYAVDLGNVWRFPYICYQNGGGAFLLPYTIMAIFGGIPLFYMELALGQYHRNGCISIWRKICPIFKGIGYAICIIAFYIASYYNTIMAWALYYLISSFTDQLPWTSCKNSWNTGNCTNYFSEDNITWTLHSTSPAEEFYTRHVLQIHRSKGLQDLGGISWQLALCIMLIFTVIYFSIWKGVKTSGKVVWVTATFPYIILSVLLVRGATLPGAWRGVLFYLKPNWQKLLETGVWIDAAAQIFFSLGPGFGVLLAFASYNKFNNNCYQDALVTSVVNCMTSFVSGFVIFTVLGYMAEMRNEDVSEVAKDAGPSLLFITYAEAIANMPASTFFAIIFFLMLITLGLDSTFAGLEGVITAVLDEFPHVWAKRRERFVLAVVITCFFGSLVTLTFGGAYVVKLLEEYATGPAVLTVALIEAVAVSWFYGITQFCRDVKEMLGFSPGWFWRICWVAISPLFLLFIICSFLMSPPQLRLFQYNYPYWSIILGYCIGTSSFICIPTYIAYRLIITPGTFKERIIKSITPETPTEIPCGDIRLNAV
Assay: Serotonin (5-HT) uptake assay in JAR cells
Type: cell-based
Conditions: at 1 μM
Reported hSERT % specific 5-HT uptake values are given for each entry in this list.
State just the number; it will be interpreted in %.

Use the examples below as a reference point.
{"compound": "COc1cccc(C(CN2CCN(c3cccc(C(F)(F)F)c3)CC2)C2(O)CCCC2)c1 (stereo not drawn)", "hSERT % specific 5-HT uptake / %": 82}
{"compound": "COc1cccc(C(CN2CCN(c3cccc(C(F)(F)F)c3)CC2)C2(O)CCCCC2)c1 (stereo not drawn)", "hSERT % specific 5-HT uptake / %": 87}
{"compound": "OC1(C(CN2CCN(c3cccc(Cl)c3)CC2)c2cccc(Cl)c2)CCCCC1 (stereo not drawn)", "hSERT % specific 5-HT uptake / %": 72}

Looking up OC1(C(CN2CCN(Cc3ccccc3)CC2)c2cccc(C(F)(F)F)c2)CCCCC1 (stereo not drawn) , I found its hSERT % specific 5-HT uptake recorded as 94

hSERT % specific 5-HT uptake reported for this compound OC1(C(CN2CCN(Cc3ccccc3)CC2)c2ccc(F)cc2)CCCCC1 (stereo not drawn) : 88

====

Molecular target: human hNET (Homo sapiens, UniProt P23975)
Construct: expressed in transfected cells
Sequence (P23975 whole entry): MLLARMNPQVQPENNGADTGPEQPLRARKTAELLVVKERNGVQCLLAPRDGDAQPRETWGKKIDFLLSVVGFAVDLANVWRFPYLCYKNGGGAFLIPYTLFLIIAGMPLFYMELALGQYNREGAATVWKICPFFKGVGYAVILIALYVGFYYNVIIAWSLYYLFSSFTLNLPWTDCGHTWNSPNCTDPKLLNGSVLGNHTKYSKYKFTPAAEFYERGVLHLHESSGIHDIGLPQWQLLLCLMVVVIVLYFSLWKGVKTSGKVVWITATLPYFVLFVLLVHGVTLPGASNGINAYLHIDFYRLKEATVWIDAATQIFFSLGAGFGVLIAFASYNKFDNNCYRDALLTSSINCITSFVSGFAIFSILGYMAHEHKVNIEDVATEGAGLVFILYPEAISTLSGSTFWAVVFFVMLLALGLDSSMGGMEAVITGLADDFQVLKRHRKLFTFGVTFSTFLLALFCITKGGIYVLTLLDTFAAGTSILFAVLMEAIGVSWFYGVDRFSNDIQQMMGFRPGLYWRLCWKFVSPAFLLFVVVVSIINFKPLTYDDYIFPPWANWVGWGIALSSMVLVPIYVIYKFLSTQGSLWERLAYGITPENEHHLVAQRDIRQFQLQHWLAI
Assay: Norepinephrine (NE) uptake assay in MDCK-Net6 cells
Format: cell-based
Settings: at 1 μM
We begin with a simple list: items and their reported hNET % Specific NE uptake.
Numeric only. Scale: %

These solved cases illustrate the format of a correct answer.
{"molecule": "COc1cccc(C(CN2CCN(c3cccc(C(F)(F)F)c3)CC2)C2(O)CCCCC2)c1 (stereo not shown)", "measurement target": "human hNET (Homo sapiens, UniProt P23975)", "units text": "%", "readout value": 38}
{"molecule": "COc1cccc(C(CN2CCN(Cc3ccccc3)CC2)C2(O)CCCCC2)c1 (stereo not shown)", "measurement target": "human hNET (Homo sapiens, UniProt P23975)", "units text": "%", "readout value": 43}
{"molecule": "COc1cccc(C(CN2CCN(c3cccc(C(F)(F)F)c3)CC2)C2(O)CCCC2)c1 (stereo not shown)", "measurement target": "human hNET (Homo sapiens, UniProt P23975)", "units text": "%", "readout value": 57}

Next, consider the following molecule.
What the record says about COc1cccc(C(CN2CCN(c3cccc(Cl)c3)CC2)C2(O)CCCCC2)c1 (stereo not shown) : hNET % Specific NE uptake is 64

====

Molecular target: human hNET (Homo sapiens, UniProt P23975)
Construct: expressed in transfected cells
Test: Norepinephrine (NE) uptake assay in MDCK-Net6 cells
Type: cell-based
reported metric: EC50 (nM)
Note: unit nM is implicit; provide only the numeric part.

Example entries begin here.
{"molecule": "CN1CCN(CC(c2cccc(F)c2)C2(O)CCCCC2)CC1 (stereo not drawn)", "units text": "nM", "EC50": 240}
{"molecule": "CN1CCN(CC(c2cccc(Cl)c2)C2(O)CCCCC2)CC1 (racemic)", "units text": "nM", "EC50": 55}

Please turn your attention to the following entry.
CN1CCN(CC(c2cccc(C(F)(F)F)c2)C2(O)CCCCC2)CC1 (stereo not drawn) yielded EC50 of 87

====

Biological target: human hNET (Homo sapiens, UniProt P23975)
Construct: expressed in transfected cells
Assay: Norepinephrine (NE) uptake assay in MDCK-Net6 cells
Type: cell-based
Settings: at 1 μM
reported metric: hNET % Specific NE uptake
Units required after the number.

{"compound": "COc1ccc(C(CN2CCN(C)CC2)C2(O)CCCCC2)cc1 (centres unmarked)", "reported metric": "hNET % Specific NE uptake", "readout value": "65%"}

Record COc1cccc(C(CN2CCN(c3cncc(Cl)n3)CC2)C2(O)CCCCC2)c1 (centres unmarked) . Reported hNET % Specific NE uptake: 59%

Looking up OC1(C(CN2CCN(c3cccc(Cl)c3)CC2)c2cccc(Cl)c2)CCCCC1 (centres unmarked) , I found its hNET % Specific NE uptake recorded as 23%

// OC1(C(CN2CCN(Cc3ccccc3)CC2)c2ccc(F)cc2)CCCCC1 (centres unmarked) : hNET % Specific NE uptake value = 53%

compound OC1(C(CN2CCN(Cc3ccccc3)CC2)c2cccc(C(F)(F)F)c2)CCCCC1 (centres unmarked) , hNET % Specific NE uptake observed: 19%

====

Molecular target: hSERT (Homo sapiens, UniProt P31645)
Construct: cells were stimulated with staurosporine (40 nM) to increase the expression of the 5-HT transporter; host or cells: JAR (human placental choriocarcinoma)
Experiment: Serotonin (5-HT) uptake assay in JAR cells
Assay type: cell-based
reported metric: pEC50
On this scale, pEC50 is minus log10 of a concentration expressed in M (mol/L).

// field: pEC50; key: CNCCC(Oc1ccccc1OC)c1ccccc1 (stereo not shown) [nisoxetine, reference compound] ; value = 6.56

====

Target: hSERT (Homo sapiens, UniProt P31645)
Construct: cells were stimulated with staurosporine (40 nM) to increase the expression of the 5-HT transporter; host or cells: JAR (human placental choriocarcinoma)
Test: Serotonin (5-HT) uptake assay in JAR cells
Assay type: cell-based
Details: at 1 μM
Below, each of the compounds is paired with its reported hSERT % specific 5-HT uptake value.
# include the unit after the value

According to the records, this compound COc1cccc(C(CN2CCN(Cc3ccccc3)CC2)C2(O)CCCCC2)c1 (stereo not shown) displays hSERT % specific 5-HT uptake of 49%

Looking up COc1cccc(C(CN2CCN(c3cccc(Cl)c3)CC2)C2(O)CCCCC2)c1 (stereo not shown) , I see its hSERT % specific 5-HT uptake listed as 67%

Looking up COc1cccc(C(CN2CCN(c3cncc(Cl)n3)CC2)C2(O)CCCCC2)c1 (stereo not shown) , I see its hSERT % specific 5-HT uptake listed as 58%

Entry under test: COc1ccc(C(CN2CCN(C)CC2)C2(O)CCCCC2)cc1 (stereo not shown) . Its hSERT % specific 5-HT uptake was 79%
